Consider the following compounds; for each one, report its cell viability.
# System: NOMO1
# protocol-details: cell viability relative to DMSO control; higher = less cytotoxic
# test-context: RPMI 5 mM glucose + 10% dialyzed FBS; 48 h; 1.71 µM
The reply should contain only the number, in %.

## Task Tell me cell viability reported for `Cc1c(Cn2c(C)nc3c(C(=O)O)cc(N4CCOCC4)cc32)cccc1C(F)(F)F`
## Result 112

## Task Tell me cell viability reported for `[NH2][Pt]([NH2])([Cl])[Cl]`
## Result 96

## Task Tell me cell viability reported for `CC(C)C[C@H](NC(=O)[C@@H](NC(=O)c1cccc(-c2ccccc2)n1)[C@@H](C)O)B(O)O`
## Result 8.94

## Task Tell me cell viability reported for `C[C@@]12O[C@@H](C[C@]1(O)CO)n1c3ccccc3c3c4c(c5c6ccccc6n2c5c31)CNC4=O`
## Result 50

## Task Tell me cell viability reported for `NC(CO)(CO)CCc1ccc(Sc2cccc(OCc3ccccc3)c2)cc1Cl`
## Result 115
